For each of the molecules below, state its GI50.
Tested on: SK-MEL-5
Assay: NCI tumour cell line growth inhibition, 48 h
Calls of active or inactive are those of the source. Rule as the data show it: active = GI50 up to about 1.1 µM and inactive = higher.

Guide cases for GI50, answers given:
INSERT INTO assay_data (molecule, result) VALUES
  ('O=C(NCCNCCO)c1cccc2ccc(-c3ccccc3)nc12', '3.59 µM (inactive)'),
  ('O=C(O)C1=CN(c2ccncc2)C(c2ccco2)=CC1c1ccccc1[N+](=O)[O-] (stereo unspecified)', '6.65 µM (inactive)');

Each of the following entries comes with a recorded value; kindly state GI50 for each.
1. CN(CC(=O)O)c1ncc2c(n1)-c1ccccc1CC2
2. COc1ccc(OCC(=O)O)c2c1CCC(C(C)C)C2=O (stereo unspecified)
3. NNC(=O)Nc1cccnc1
4. CCOc1ccc(/N=C/c2ccnc3ccccc23)cc1

output:
> 100 µM (inactive)
> 100 µM (inactive)
> 100 µM (inactive)
8.15 µM (inactive)
